Reported values of apparent KD of K4 kissing-loop reporter for individual entries
Tested on: K4 kissing-loop RNA reporter;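 further: bound reporter read as fluorescence of individual clusters on recovered sequencing chips by microscopy, with normalized cluster intensities fitted with a binding model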
Assay: apparent KD of K4 kissing-loop reporter; higher = weaker reporter binding
Details: Eterna round: R107; input ligand: theophylline 20 uM
# value in nM; strip the unit string

INSERT INTO results (sequence_chain, quantity_name, reported_value) VALUES
  ('GGGAUGAUGUCGGCCGCCACUGACUGUGUCCAGUGAUGUUGGGAGUGUACGGAAGUUCCAUAUAUCAGGACCGGGACCUCGCUCC [theeternabot_sameState_KL_Trp_B_44]', 'apparent KD of K4 kissing-loop reporter', 817),
  ('UUUUUUAAGAUAUUGACCAACCCGAAGCUACGAGGACCGGUACGGCCGCCACUCGCCAGUGAUGUUGGCGACUGGUGAAACCAUG [KL-XTryp-A24]', 'apparent KD of K4 kissing-loop reporter', 105);

Query CAUACGCAUGGAGGAUAUGAGAUUUCUCAUAUUAUUUAAUAUUCUCAGUGAUGUUGGGAUUUAAACUCAGAAGGCCAUGUGUAUG [Ex FMN B 7] yields apparent KD of K4 kissing-loop reporter of 234

Query UGUGUACCGGGAAGGAGCGUGAAUGAUAAUGGAUAUAGUGAUGUUAUAUAUACGAACGAAUCGCAGGUAGGUCGCCCGGAUCCCU [SSArgB.X] yields apparent KD of K4 kissing-loop reporter of 559

Query ACGACGCAUAGUGAUACCAGCAUUAUAUGAGUGAUGUUCUACCUAAAAUGGUAAUAAUGAUGCCCUUGGCAGCACUAUGCGUCAG [KL-SSTheoB2] yields apparent KD of K4 kissing-loop reporter of 638

Query AGUGAUGUUGUGUUAUGCUAGGGAAGUGAUCGAGGACCGGUACGGCCGCCACUCGAGUGAUGAGUGAGUGAUGUUUGUUUAGGGA [sdsmullin] yields apparent KD of K4 kissing-loop reporter of 844
